experiment: rescue of yeast from PfHsp40 toxicity, primary screen, S. cerevisiae, ATP luminescence (AID 504582);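 note: yeast W303a lacking pdr1 and pdr3 grown in galactose medium; growth measured after three days at 30 °C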; conditions: S. cerevisiae expressing PfHsp40, growth rescue, at 12.5 µM
About 2,300 (0.68%) of roughly 340,000 compounds were called active. Cut-off read from the data, not from the text of the source: active = growth rescue above about 28% (passing the limit was not always enough); inconclusive = no clear call, values can overlap the other calls. This excerpt belongs to a sample that is enriched for actives.
Field 'call' accepts t = active, f = inactive

Kindly provide the recorded test outcome for the following compound: O=C(CN1C(=O)NC2(CCCCC2)C1=O)NCCC1=CCCCC1
f

Then CC(=NCc1ccco1)c1c(C(F)(F)F)[nH]n(-c2nc3ccccc3s2)c1=O ?
f

Then C/C(Cn1nnc2ccccc21)=N\OC(=O)c1cc(F)c(F)cc1Cl ?
f

Then CCc1ccccc1NC(=O)CSc1nnc(-c2ccncc2)o1 ?
f

Then CC(=O)c1ccc(S(=O)(=O)Nc2ccc(C(=O)NCC(c3ccccc3)N(C)C)cc2)cc1 (centres undefined) ?
f

Then Cc1onc(-c2c(Cl)cccc2Cl)c1C(=O)NNC(=O)c1c(-c2c(Cl)cccc2Cl)noc1C ?
f

Then CC(Oc1cccc(NC(=O)c2cccs2)c1)C(=O)c1ccccc1 (centres undefined) ?
f

Then O=C(Cn1c(NCCO)nc2ccccc21)c1ccc(Cl)cc1Cl ?
f

Then COC(=O)C(C(=O)Nc1cccc(C)n1)C1CCCCCC1 (centres undefined) ?
f

Then Cc1ccccc1OCC(=O)Nc1ccc(N2CCN(C(=O)C(C)C)CC2)c(Cl)c1 ?
t

Then N#Cc1ccc(C(=O)OCC(=O)NC(=O)NC2CCCCC2)cc1 ?
f

Then CCN(CC)CCCNC(=O)CCn1nc(-c2ccc(Cl)cc2)ccc1=O ?
f

Then COC(=O)Cc1cc(=O)n(-c2nc3ccccc3s2)[nH]1 ?
t

Then Cc1noc(C)c1COc1ccc(C(=O)NCCOc2ccccc2)cc1 ?
f

Then O=C(CCC(=O)N1CCCC1)Nc1ccc([N+](=O)[O-])cc1 ?
f

Then CCOC(=O)c1ccccc1NC(=O)COC(=O)CCC(=O)N1CCOCC1 ?
f

Then COc1ccc(C2N=C(N)N=C(N)N2c2ccccc2)cc1OC (centres undefined) ?
f

Then COc1ccc(C(CNC(=O)c2ccc(NS(=O)(=O)c3ccc(F)c(C)c3)cc2)N(C)C)cc1 (centres undefined) ?
f

Then Oc1ccc2ccccc2c1N=Nc1nccs1 ?
t

Then O=c1oc2ccccc2cc1-c1csc(Nc2ccc(O)cc2)n1 ?
t

Then Cc1cccc(NC(=O)Nc2cccc(Oc3c(F)c(F)c(F)c(F)c3F)c2)c1 ?
f

Then O=S(=O)(O)c1nc2ccccc2n1Cc1ccc(Cl)cc1Cl ?
t

Then COc1cc(NC(=O)COc2ccccc2Cl)ccc1NC(=O)C(C)C ?
f

Then COC(=O)C1CCCCN1C(=O)c1ccc(OC2CCN(C(C)=O)CC2)c(OC)c1 (centres undefined) ?
f

Then Cc1no[n+]([O-])c1COc1ccccc1/C=C1\NC(=S)NC1=O ?
f

Then O=c1oc2ccccc2cc1-c1cn(-c2ccccc2)c(=S)[nH]1 ?
f

Then Cc1cc(NC(=O)CN2CCCC(C)C2)n(-c2nc3ccccc3s2)n1 (centres undefined) ?
f

Then CCCC(NC(=O)c1ccco1)c1nc2ccccc2[nH]1 (centres undefined) ?
f

Then O=C(CCc1ccccc1)NNC(=O)COc1ccc(Cl)cc1 ?
f

Then Cc1cc(C)cc(OCC(=O)NNC(=O)c2cc3ccccc3oc2=O)c1 ?
f

Then Cc1cccc(CCNS(=O)(=O)c2ccc(S(=O)(=O)NC3CCCC3)cc2)c1 ?
f

Then Cc1c(C(=O)NCCN2C(=O)S/C(=C\c3cccs3)C2=O)cccc1[N+](=O)[O-] ?
f

Then S=c1c2[nH]cnc2ncn1CCSc1ncnc2nc[nH]c12 ?
f

Then COC(=O)c1nc(NC(=O)c2ccc(C(C)(C)C)cc2)n[nH]1 ?
f

Then Cc1onc(-c2ccccc2)c1C(=O)NNC(=S)NC(=O)c1ccc(F)cc1 ?
t

Then Cc1ccoc1C(=O)Nc1cccc(Oc2ccccc2)c1 ?
t

Then CCCC(C)C(=O)OCC(=O)Nc1c(Br)cc(C)cc1Br (centres undefined) ?
f

Then COc1ccccc1OCC(=O)Nc1c2c(nn1-c1ccc(F)cc1)CS(=O)(=O)C2 ?
f

Then CCc1ccc(NC(=O)c2ccc(Cn3cc([N+](=O)[O-])cn3)cc2)cc1 ?
f

Then Cc1c(C(=O)N(C)CCc2cnn(C)c2)oc2c(F)cccc12 ?
f

Then CSc1nccc(NC(=O)c2ccc(C(C)(C)C)cc2)n1 ?
t

Then CN1c2ccc([N+](=O)[O-])cc2C(C)(C)C12C=Cc1cc(C(=O)O)ccc1O2 (centres undefined) ?
t

Then Cn1ncc(Br)c1C(=O)NC1CCCC1 ?
f

Then Cc1cc(NC(=O)CSc2nc(=O)cc(N)n2-c2ccc(F)cc2)no1 ?
f

Hello, the source for this data is PubChem BioAssay AID504582, in case you need it.
